Every entry's value here was drawn from paper PMC8536644.

- experiment.notes: Trypan Blue viability of the single cell suspension, lung
- Type: in vivo, rat
- measurement.parameters: male, Wistar, rat, lung, inhaled, 10 ppm, lung, male, no FPG; 10 ppm inhalation, 5 days; individual animals; read-out: Individual viability (%)
measurement.label: viability at 5 days (%)
Number in %, nothing else.

Could you tell me which viability at 5 days is on file for C=CN1CCCC1=O [NVP, N-vinylpyrrolidone] ?
99

* * *

- experiment.notes: Trypan Blue viability of the single cell suspension, lung
- Type: in vivo, rat
- measurement.parameters: female, Wistar, rat, lung, inhaled, 5 ppm, lung, female, Comet with FPG (Table 11); 5 ppm inhalation, 5 days; individual animals; read-out: Individual viability (%)
measurement.label: viability at 5 days

Could you tell me which viability at 5 days is on file for C=CN1CCCC1=O ?
99%

* * *

- experiment.notes: Trypan Blue viability of the single cell suspension, lung
- Type: in vivo, rat
- measurement.parameters: male, Wistar, rat, lung, inhaled, 5 ppm, lung, male, no FPG; 5 ppm inhalation, 5 days; individual animals; read-out: Individual viability (%)
measurement.label: viability at 5 days
# output: numeric value plus its unit

Could you tell me which viability at 5 days is on file for C=CN1CCCC1=O [NVP, N-vinylpyrrolidone] ?
97%

* * *

- experiment.notes: Trypan Blue viability of the single cell suspension, liver
- Assay type: in vivo, rat
- measurement.parameters: female, Wistar, rat, liver, inhaled, 20 ppm, liver, female, no FPG; 20 ppm inhalation, 5 days; individual animals; read-out: Individual viability (%)
measurement.label: viability at 5 days (%)
Number in %, nothing else.

Could you tell me which viability at 5 days is on file for C=CN1CCCC1=O ?
96

* * *

- experiment.notes: Trypan Blue viability of the single cell suspension, liver
- Format: in vivo, rat
- measurement.parameters: male, Wistar, rat, liver, inhaled, 20 ppm, liver, male, Comet with FPG (Table 8); 20 ppm inhalation, 5 days; individual animals; read-out: Individual viability (%)
measurement.label: viability at 5 days (%)
Number in %, nothing else.

Could you tell me which viability at 5 days is on file for C=CN1CCCC1=O ?
100

* * *

- experiment.notes: Trypan Blue viability of the single cell suspension, liver
- Assay type: in vivo, rat
- measurement.parameters: male, Wistar, rat, liver, inhaled, 5 ppm, liver, male, Comet with FPG (Table 8); 5 ppm inhalation, 5 days; individual animals; read-out: Individual viability (%)
measurement.label: viability at 5 days

Could you tell me which viability at 5 days is on file for C=CN1CCCC1=O ?
97%

* * *

- experiment.notes: Trypan Blue viability of the single cell suspension, lung
- Assay type: in vivo, rat
- measurement.parameters: male, Wistar, rat, lung, inhaled, 5 ppm, lung, male, Comet with FPG (Table 10); 5 ppm inhalation, 5 days; individual animals; read-out: Individual viability (%)
measurement.label: viability at 5 days (%)
Number in %, nothing else.

Could you tell me which viability at 5 days is on file for C=CN1CCCC1=O ?
97

* * *

- experiment.notes: Trypan Blue viability of the single cell suspension, lung
- Type: in vivo, rat
- measurement.parameters: female, Wistar, rat, lung, inhaled, 10 ppm, lung, female, Comet with FPG (Table 11); 10 ppm inhalation, 5 days; read-out: Viability (%) (mean ± SD)
measurement.label: viability at 5 days (%)
Number in %, nothing else.

Could you tell me which viability at 5 days is on file for C=CN1CCCC1=O [NVP, N-vinylpyrrolidone] ?
98

* * *

- experiment.notes: Trypan Blue viability of the single cell suspension, lung
- Format: in vivo, rat
- measurement.parameters: female, Wistar, rat, lung, inhaled, 5 ppm, lung, female, Comet with FPG (Table 11); 5 ppm inhalation, 5 days; read-out: Viability (%) (mean ± SD)
measurement.label: viability at 5 days (%)
Number in %, nothing else.

Could you tell me which viability at 5 days is on file for C=CN1CCCC1=O [NVP, N-vinylpyrrolidone] ?
99

* * *

- experiment.notes: Trypan Blue viability of the single cell suspension, liver
- Format: in vivo, rat
- measurement.parameters: female, Wistar, rat, liver, inhaled, 10 ppm, liver, female, Comet with FPG (Table 9); 10 ppm inhalation, 5 days; individual animals; read-out: Individual viability (%)
measurement.label: viability at 5 days

Could you tell me which viability at 5 days is on file for C=CN1CCCC1=O ?
98%

* * *

- experiment.notes: Trypan Blue viability of the single cell suspension, lung
- Type: in vivo, rat
- measurement.parameters: male, Wistar, rat, in vivo, po, 200 mg/kg, Viability (%) (mean ± SD)
measurement.label: viability at 24 h (%)
Number in %, nothing else.

Could you tell me which viability at 24 h is on file for CCOS(C)(=O)=O [EMS, ethyl methanesulfonate, reference compound] ?
99

* * *

- experiment.notes: Trypan Blue viability of the single cell suspension, lung
- Type: in vivo, rat
- measurement.parameters: female, Wistar, rat, lung, inhaled, 20 ppm, lung, female, Comet with FPG (Table 11); 20 ppm inhalation, 5 days; individual animals; read-out: Individual viability (%)
measurement.label: viability at 5 days
# output: numeric value plus its unit

Could you tell me which viability at 5 days is on file for C=CN1CCCC1=O [NVP, N-vinylpyrrolidone] ?
98%

* * *

- experiment.notes: Trypan Blue viability of the single cell suspension, liver
- Type: in vivo, rat
- measurement.parameters: male, Wistar, rat, liver, inhaled, 5 ppm, liver, male, no FPG; 5 ppm inhalation, 5 days; individual animals; read-out: Individual viability (%)
measurement.label: viability at 5 days (%)
Number in %, nothing else.

Could you tell me which viability at 5 days is on file for C=CN1CCCC1=O ?
92

* * *

- experiment.notes: Trypan Blue viability of the single cell suspension, liver
- Assay type: in vivo, rat
- measurement.parameters: female, Wistar, rat, liver, inhaled, 10 ppm, liver, female, Comet with FPG (Table 9); 10 ppm inhalation, 5 days; read-out: Viability (%) (mean ± SD)
measurement.label: viability at 5 days (%)
Number in %, nothing else.

Could you tell me which viability at 5 days is on file for C=CN1CCCC1=O ?
98

* * *

- experiment.notes: Trypan Blue viability of the single cell suspension, liver
- Assay type: in vivo, rat
- measurement.parameters: female, Wistar, rat, liver, inhaled, 20 ppm, liver, female, Comet with FPG (Table 9); 20 ppm inhalation, 5 days; individual animals; read-out: Individual viability (%)
measurement.label: viability at 5 days
# output: numeric value plus its unit

Could you tell me which viability at 5 days is on file for C=CN1CCCC1=O ?
98%

* * *

- experiment.notes: Trypan Blue viability of the single cell suspension, lung
- Assay type: in vivo, rat
- measurement.parameters: male, Wistar, rat, lung, inhaled, 10 ppm, lung, male, Comet with FPG (Table 10); 10 ppm inhalation, 5 days; individual animals; read-out: Individual viability (%)
measurement.label: viability at 5 days (%)
Number in %, nothing else.

Could you tell me which viability at 5 days is on file for C=CN1CCCC1=O [NVP, N-vinylpyrrolidone] ?
99

* * *

- experiment.notes: Trypan Blue viability of the single cell suspension, liver
- Format: in vivo, rat
- measurement.parameters: male, Wistar, rat, liver, inhaled, 20 ppm, liver, male, Comet with FPG (Table 8); 20 ppm inhalation, 5 days; read-out: Viability (%) (mean ± SD)
measurement.label: viability at 5 days (%)
Number in %, nothing else.

Could you tell me which viability at 5 days is on file for C=CN1CCCC1=O ?
99

* * *

- experiment.notes: Trypan Blue viability of the single cell suspension, lung
- Format: in vivo, rat
- measurement.parameters: female, Wistar, rat, lung, inhaled, 10 ppm, lung, female, no FPG; 10 ppm inhalation, 5 days; individual animals; read-out: Individual viability (%)
measurement.label: viability at 5 days

Could you tell me which viability at 5 days is on file for C=CN1CCCC1=O ?
98%

* * *

- experiment.notes: Trypan Blue viability of the single cell suspension, lung
- Assay type: in vivo, rat
- measurement.parameters: male, Wistar, rat, lung, inhaled, 20 ppm, lung, male, Comet with FPG (Table 10); 20 ppm inhalation, 5 days; read-out: Viability (%) (mean ± SD)
measurement.label: viability at 5 days (%)
Number in %, nothing else.

Could you tell me which viability at 5 days is on file for C=CN1CCCC1=O ?
99

* * *

- experiment.notes: Trypan Blue viability of the single cell suspension, liver
- Type: in vivo, rat
- measurement.parameters: both sexes, Wistar Crl:WI (Han), rat, liver single cell suspension, inhaled, liver cells, NVP-exposed; read-out: Viability, range of the individual animals
measurement.label: viability at 5 days

Could you tell me which viability at 5 days is on file for C=CN1CCCC1=O ?
90 to 99%

* * *

- experiment.notes: Trypan Blue viability of the single cell suspension, lung
- Type: in vivo, rat
- measurement.parameters: both sexes, Wistar Crl:WI (Han), rat, lung single cell suspension, inhaled, lung cells, NVP-exposed; read-out: Viability, range of the individual animals
measurement.label: viability at 5 days

Could you tell me which viability at 5 days is on file for C=CN1CCCC1=O ?
93 to 100%

* * *

- experiment.notes: Trypan Blue viability of the single cell suspension, lung
- Assay type: in vivo, rat
- measurement.parameters: male, Wistar, rat, lung, inhaled, 5 ppm, lung, male, Comet with FPG (Table 10); 5 ppm inhalation, 5 days; read-out: Viability (%) (mean ± SD)
measurement.label: viability at 5 days (%)
Number in %, nothing else.

Could you tell me which viability at 5 days is on file for C=CN1CCCC1=O ?
98
